Each recorded value in this set is attributed to patent US20260337156A1.

experiment: particle size and polydispersity index of drug micelles over time (ZetaSizer); format: physicochemical; settings: docetaxel:compound 1:3, docetaxel 0.5 mg/mL; time 2 h
Hi, to clarify the labels: criterion met covers Polydispersity index from 0.2 upward, criterion not met covers anything below 0.2.

>>> category_label("COc1cc(C)c(/C=C/C(C)=C/C=C/C(C)=C/C(=O)N(C)CCS(=O)(=O)[O-])c(C)c1C.[Na+]")
"criterion met"
>>> category_label("COc1cc(C)c(/C=C/C(C)=C/C=C/C(C)=C/C(=O)N2CCN(c3ccc(S(=O)(=O)[O-])cc3)CC2)c(C)c1C.[Na+]")
"criterion met"
>>> category_label("COc1cc(C)c(/C=C/C(C)=C/C=C/C(C)=C/C(=O)N(C)[C@H]2CC[C@H](CS(=O)(=O)[O-])CC2)c(C)c1C.[Na+]")
"criterion met"
>>> category_label("COc1cc(C)c(/C=C/C(C)=C/C=C/C(C)=C/C(=O)N(CCS(=O)(=O)[O-])CC(N)=O)c(C)c1C.[Na+]")
"criterion not met"
>>> category_label("COc1cc(C)c(/C=C/C(C)=C/C=C/C(C)=C/C(=O)N2CCC(CCS(=O)(=O)[O-])CC2)c(C)c1C.[Na+]")
"criterion not met"
